measured-on: T1, N-terminally His6-tagged human PCNA (proliferating cell nuclear antigen) (human, UniProt P12004 1-261)
T1 construct: Proliferating cell nuclear antigen, human; The tag is used for capture in SPR; source: E. coli BL21(DE3), purified (Ni-NTA, SEC)
measurement-notes: ITC; ITC200; PCNA injected into the peptide; 10 mM HEPES, 150 mM NaCl, 1 mM EDTA, 1 mM TCEP, pH 7.4; 25 °C; single binding site model; triplicates
condition-notes: both partners purified
measured-metric: Kd (nM)
The reply should be a number in nM, with the unit left off.

Look up Kd for this binder: Ac-RQTSMTDFYHSKRRL-NH2 (also called initial p21 peptide; p21 peptide; source: peptide, > 95% purity) [p21^143–157 peptide (Ac-RQTSMTDFYHSKRRL-NH2)]
67
